The measured values listed here are drawn from ChEMBL document CHEMBL1961873.

Listed here are compounds together with their documented inhibition.
biological target: Protein kinase C beta type (Homo sapiens) (UniProt P05771); conditions: at 1 µM;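 further: mean inhibition value, enzyme form tested was the PKC-beta1 splice variant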
Sequence (P05771 2-671 limits assumed): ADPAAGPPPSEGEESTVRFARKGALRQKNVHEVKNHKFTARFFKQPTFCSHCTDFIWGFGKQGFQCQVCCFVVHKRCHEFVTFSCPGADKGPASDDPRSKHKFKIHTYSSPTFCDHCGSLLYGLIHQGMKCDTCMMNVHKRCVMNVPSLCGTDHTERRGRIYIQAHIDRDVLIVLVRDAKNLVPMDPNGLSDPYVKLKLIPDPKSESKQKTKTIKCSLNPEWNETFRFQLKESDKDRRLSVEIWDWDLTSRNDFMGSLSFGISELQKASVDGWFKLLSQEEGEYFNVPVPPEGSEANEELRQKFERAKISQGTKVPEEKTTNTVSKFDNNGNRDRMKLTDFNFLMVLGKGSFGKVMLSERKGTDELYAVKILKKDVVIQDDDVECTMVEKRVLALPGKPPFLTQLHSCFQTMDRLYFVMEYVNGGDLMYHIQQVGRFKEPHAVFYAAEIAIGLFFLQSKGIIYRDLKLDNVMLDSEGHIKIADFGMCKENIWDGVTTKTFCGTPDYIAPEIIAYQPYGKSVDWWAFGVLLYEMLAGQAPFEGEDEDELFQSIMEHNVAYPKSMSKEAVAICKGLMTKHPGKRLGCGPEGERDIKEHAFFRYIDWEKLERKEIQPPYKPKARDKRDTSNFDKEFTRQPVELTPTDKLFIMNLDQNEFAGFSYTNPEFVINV
Description: GSK_PKIS: PKC-beta1 (splice variant) mean inhibition at 1 uM [Nanosyn]
Numbers only here, please. The scale is %.

Known results for compounds:
{"compound": "c1ccc(Cc2nc3ccc(Nc4ncnc5ccccc45)cc3[nH]2)cc1", "measurementTarget": "Protein kinase C beta type (Homo sapiens) (UniProt P05771)", "inhibition / %": 1.59}
{"compound": "Cc1nc(-c2ccccc2)n2nc(NCCCN3CCOCC3)ncc12", "measurementTarget": "Protein kinase C beta type (Homo sapiens) (UniProt P05771)", "inhibition / %": 0.04}
{"compound": "Cc1ccc(NC(=O)CC2CC2)cc1-c1ccc(C(=O)NCC2CC2)cc1", "measurementTarget": "Protein kinase C beta type (Homo sapiens) (UniProt P05771)", "inhibition / %": 2.08}
{"compound": "CCCN1CCCC(c2ccc(Nc3nc(Nc4cc(F)ccc4C(N)=O)c4cc[nH]c4n3)c(OC)c2)C1 (stereo not given)", "measurementTarget": "Protein kinase C beta type (Homo sapiens) (UniProt P05771)", "inhibition / %": 3.2}

Below: the item to evaluate.
Recorded inhibition for COC(=O)c1ccc2c(c1)C(=Cc1cc(Br)c(O)c(Br)c1)C(=O)N2 , please?
-0.51
